biological target: Ras-related protein Rab7, wildtype (dog); test: Rab7 GTP binding inhibitors, further analogs, SAR follow-up, biochemical, additional analogs, wildtype, multiplex bead flow cytometry (AID 2036); settings: measured here: Ki from EC50
Measured Ki, listed per entry.
Record the value in nM, omitting the unit from your answer.

Examples with answers:
CC(C)Cc1ccc([C@H](C)C(=O)O)cc1: 310
COc1cc(-c2c(C#N)c(N)n(S(=O)(=O)c3c(C(C)C)cc(C(C)C)cc3C(C)C)c2C(=O)c2ccccc2)cc(OC)c1OC: 2170
O=C1C(c2c(O)[nH]c3c(F)cccc23)=Nc2ccccc21: 1560

Query: Please look at this compound and report its Ki: `COc1ccc(S(=O)(=O)n2c(N)c(C#N)c(-c3cncc(Br)c3)c2C(=O)c2ccccc2)cc1`
Result: 540

Query: Please look at this compound and report its Ki: `CSc1ccc(/C=C2/C(C)=C(CC(=O)O)c3cc(F)ccc32)cc1`
Result: 2700

Query: Please look at this compound and report its Ki: `O=C1N=c2ccccc2=C1c1[nH]c(=S)[nH]c1O`
Result: 870
